# Method: Pharmacokinetics of intraperitoneal or intravenous injection in CD1 mice
# Type: in vivo
# Test Context: male, CD1, mouse, plasma, ip, 10 mg/kg, IP 10 mg/kg, CD1 mice plasma, 4 h; read-out: Conc. (ng/mL) Mouse 3
Readout Label: concentration at 4 h (ng/mL)
Enter your answer as a number in ng/mL; do not include the unit.

Use the examples below as a reference point.
Cc1ncsc1-c1ccc(CNC(=O)[C@@H]2C[C@@H](O)CN2C(=O)[C@@H](NC(=O)CCOCCOc2ccc(Nc3ncc(C(F)(F)F)c(NCc4cccc(N(C)S(C)(=O)=O)c4)n3)cc2)C(C)(C)C)cc1 [Compound 102] = 559
CN(c1cccc(CNc2nc(Nc3ccc(OCCCOCCC(=O)NCCOc4cccc5c4C(=O)N(C4CCC(=O)NC4=O)C5=O)cc3)ncc2C(F)(F)F)c1)S(C)(=O)=O (stereo not drawn) [Compound 107] = 22.2

Next, consider the following compound.
Memo: Cc1ncsc1-c1ccc(CNC(=O)[C@@H]2C[C@@H](O)CN2C(=O)[C@@H](NC(=O)COCCCOc2ccc(Nc3ncc(C(F)(F)F)c(NCc4cccc(N(C)S(C)(=O)=O)c4)n3)cc2)C(C)(C)C)cc1 [Compound 101] , reported concentration at 4 h: 1250
